# target system: Neutrophil elastase (Homo sapiens)
# assay: Inhibition of human neutrophil elastase
measurement name: IC50

Task: Recorded IC50 for Cc1c(-c2ccnn2-c2ccc(C#N)cc2)cn2nc(NC(=O)CN(C)C)nc2c1-c1cccc(C(F)(F)F)c1 with Neutrophil elastase (Homo sapiens), please?
Output: < 20 nM

====

# target system: Neutrophil elastase (Homo sapiens, UniProt P08246)
# Sequence (P08246 whole entry): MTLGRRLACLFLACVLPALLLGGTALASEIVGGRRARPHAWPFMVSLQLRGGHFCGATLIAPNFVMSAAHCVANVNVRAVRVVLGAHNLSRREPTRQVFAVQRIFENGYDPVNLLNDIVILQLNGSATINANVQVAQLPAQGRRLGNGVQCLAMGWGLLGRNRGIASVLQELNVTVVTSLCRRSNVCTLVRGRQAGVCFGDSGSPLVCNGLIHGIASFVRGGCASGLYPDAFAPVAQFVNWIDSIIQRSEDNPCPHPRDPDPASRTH
# assay: Inhibition of human neutrophil elastase using MeO-Suc-Ala-Ala-Pro-Val 7-amido-4-methylcoumarin as substrate preincubated for 15 mins followed by substrate addition measured after 90 mins
measurement name: pKi
Would you please state pKi, meaning minus log10 of the concentration in mol/L, as a bare number?

Task: Consider the molecule Cc1c(-c2ccnn2C)cc(C(=O)NCc2ccc(S(C)(=O)=O)cn2)c(=O)n1-c1cccc(C(F)(F)F)c1 and give its measured pKi.
Output: 7.92

Source listed as ChEMBL document CHEMBL3616465.
